The reported measurements were obtained from PubChem BioAssay.

test: E. coli growth modulation, two-sided OD650, primary screen, E. coli filamentation project, strain DRC41, 24 h (AID 1093); details: OD650, 24 h, higher = more signal, called active from +8 up or from −8 down;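 note: MC1000 strain lacking acrAB efflux and sulA so SOS filamentation is blocked; test concentration not given here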
readout-name: z-score

- compound: "O=C1C2C=CC(C(O)c3ccc(-c4ccccc4)s3)N(n3cnnc3)C2C(=O)N1Cc1ccccc1 (stereo not given)"
  readout-name: "z-score"
  result: -0.485
- compound: "C=CCOC(=O)[C@H]1[C@@H]2C(=O)O[C@@H](c3ccccc3)[C@@H](c3ccccc3)N2[C@@H](c2ccc(OCCOC(=O)[C@@H]3C[C@@H]4C(=O)NCC(=O)N4[C@@H]3c3ccc(O)cc3)cc2)[C@]12C(=O)Nc1ccccc12"
  readout-name: "z-score"
  result: 2.36
- compound: "C=CCC(OC(C)=O)[C@@H]1[C@@H](N(Cc2ccc(-c3ccccc3)cc2)C(=O)Cc2ccc(F)cc2)c2cc(OCCCO)ccc2N1C(=O)c1ccc2ccccc2n1 (stereo not given in full)"
  readout-name: "z-score"
  result: 1.47
- compound: "CC1=C2[C@@H](CCc3ccccc3)OB(O)C[C@@H]2n2c(=O)n(-c3ccccc3)c(=O)n2C1"
  readout-name: "z-score"
  result: -0.296
- compound: "COc1ccc([Si](C)(C)[C@@H]2[C@@H](CC(=O)N3CCC[C@H]3CO)O[C@]3(C(=O)N(C)c4c(Br)cc(C)cc43)[C@H]2C)cc1"
  readout-name: "z-score"
  result: -0.861
- compound: "C[C@]1(C(=O)NCc2ccccc2)c2ccccc2C(=O)N(Cc2ccc(OC(F)(F)F)cc2)[C@H]1c1ccc(CO)cc1"
  readout-name: "z-score"
  result: 1.36
- compound: "Cc1ccc([C@H]2[C@H](C(=O)O)[C@H](Sc3ccccc3)[C@@H](C(C)C)N2S(=O)(=O)c2ccc(C)cc2)cc1"
  readout-name: "z-score"
  result: -1.69
- compound: "C=C(C(=O)CC[C@H](OC(C)=O)c1ccc(OCCO)cc1)C(C)C"
  readout-name: "z-score"
  result: 2.11
- compound: "COC(=O)[C@@]1(Cc2ccc(F)cc2)[C@H]2c3cc(C(=O)N4CCCC4)n(Cc4cccc5ccccc45)c3C[C@H]2CN1C(=O)c1ccccc1"
  readout-name: "z-score"
  result: -1.48
- compound: "O=C1O[C@@H](c2ccccc2)[C@@H](c2ccccc2)N2[C@@H](c3ccccc3OCCO)[C@]3(C(=O)Nc4ccc(C#CC5(O)CCCCCC5)cc43)[C@@H](C(=O)Nc3nc4ccccc4s3)[C@H]12"
  readout-name: "z-score"
  result: 0.0499
- compound: "CC(C)C(=C=CC[C@@H](O)c1ccccc1OCCO)C[C@@H](O)c1ccccn1"
  readout-name: "z-score"
  result: -0.0287
- compound: "C=C(CCCC)/C(=C/C[C@H](OC(C)=O)c1ccc(CO)o1)c1cnc2ccccc2c1"
  readout-name: "z-score"
  result: 0.111
- compound: "CC(C)C(=C=CC[C@H](O)c1ccccc1OCCO)C[C@H](O)c1ccccn1"
  readout-name: "z-score"
  result: 0.662
- compound: "O=C1O[C@H](c2ccccc2)[C@H](c2ccccc2)N2[C@H]1[C@@H](C(=O)O)[C@]1(C(=O)Nc3ccc(C#CC4=CCCCC4)cc31)[C@H]2c1ccc(OCCO)cc1"
  readout-name: "z-score"
  result: -0.413
- compound: "COc1ccc(C(O)C2C=CC3C(=O)NC(=O)C3N2Nc2ccccn2)cc1OCc1ccccc1 (stereo not given)"
  readout-name: "z-score"
  result: -0.181
